Tested on: RXF 393 renal
Assay: NCI-60 one-dose screen, 48 h (100 = growth as untreated, 0 = no growth, -100 = all killed)
Conditions: 10 µM unless noted
Experimental: Cells are grown in 96 well plates and exposed to the test compound for 48 hours. Compounds are tested at a single concentration, which is 10^-5 M for most compounds. The reported endpoint is percent growth (GI% or GIPRCNT), where numbers from 0 - 100% represent growth inhibition, and numbers from -100% - 0 represent cell death. For example, a value of 40 represents 60% growth inhibition. A value of 0 means no net growth occurred over the course of the experiment. […]
This is part of a sample that, as a whole, favours compounds with a hit. Of some 83,000 tested, about 20% had one in any assay.
experimental_readout: growth (%)
Give bare numbers, in %.

Take a look at these entries with their results.
input_smiles: O=C(CSc1nnc(-c2ccc(-c3nc4ccc(Cl)cc4[nH]3)cc2)o1)Nc1ccccc1
reading_unit: %
growth: -40.6
//
input_smiles: OCCn1cc(-c2nc3ccc4[nH]ncc4c3c3c2CCCC3)cn1
reading_unit: %
growth: -12.6

Below: the item to evaluate.
## Task Form field: growth recorded for Nc1nnc(CS(=O)(=O)c2ccccc2)s1 with RXF 393 renal (enter value)
## Result 172
